# Assay Name: viability loss of HPDE-C7K cells – cell-based, fluorescence, HTS, primary screen (AID 431);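 also: 0% = DMSO solvent wells and 100% = doxorubicin-treated wells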
# Particulars: HPDE-C7K KRASV12 cells, Alamar Blue viability, 48 h; at 10 µM; active compounds read high
Out of some 63,000 compounds screened, about 1,100 (1.7%) were called active. Only a selection was taken, and actives are over-represented in it overall. Results with a measured potency or affinity are listed apart.
# cytotoxicity binned as A: < -10%; B: ≥ -10% and < 20%; C: ≥ 20%

Molecule: CCCC(=O)N1CCN(c2ccc(NC(=O)c3cc4ccccc4o3)cc2)CC1
Class Name: A

Molecule: CCOC(=O)C1CCCN(C(=O)c2ccc(CS(=O)(=O)Cc3ccccc3C)o2)C1 (centres undefined)
Class Name: B

Molecule: CC(C)CC(=O)Nc1c2c(nn1-c1ccc(F)cc1)CSC2
Class Name: B

Molecule: Cc1cccc2cc(CN(CC3CCCO3)C(=O)c3ccncc3)c(=O)[nH]c12 (centres undefined)
Class Name: B

Molecule: CCNc1sc(C(=O)c2cccs2)c(N)c1C#N
Class Name: A

Molecule: CCCOC(=O)C1=C(C)NC2=C(C(=O)C(C(=O)OC)C(C)C2)C1c1ccc(N(CC)CC)cc1 (centres undefined)
Class Name: A

Molecule: CCC(C)N(C(=O)COC(=O)Cc1n[nH]c(=O)c2ccccc12)C1CCS(=O)(=O)C1 (centres undefined)
Class Name: A

Molecule: C=CCc1c(C)c(C#N)c2nc3ccccc3n2c1NCCN(C)C
Class Name: B

Molecule: O=C(Cc1ccc(Cl)cc1)Nc1ccc(N2CCN(C(=O)c3ccco3)CC2)c(Cl)c1
Class Name: C

Molecule: Cc1oc(-c2cccs2)nc1CS(=O)CC(=O)NCCCOC(C)C (centres undefined)
Class Name: A

Molecule: CNc1sc(C(=O)c2cccs2)c(N)c1-c1nc2ccccc2s1
Class Name: C

Molecule: Cc1c(NCc2nc3ccccc3[nH]2)c(=O)n(-c2ccccc2)n1C
Class Name: B

Molecule: COc1ccc(N/C=C2\CCOC2=O)cc1
Class Name: C

Molecule: O=C(Nc1ccc(N2CCN(C(=O)c3ccco3)CC2)c(Cl)c1)c1c(F)c(F)c(F)c(F)c1F
Class Name: C

====

# Assay Name: viability loss of HPDE-C7K cells – cell-based, fluorescence, HTS, primary screen (AID 431);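 also: 0% = DMSO solvent wells and 100% = doxorubicin-treated wells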
# Particulars: HPDE-C7K KRASV12 cells, Alamar Blue viability, 48 h; at 10 µM
About 1,100 (1.7%) of roughly 63,000 compounds were called active.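 How the source made its calls: active means compounds whose percent cytotoxicity in the single-dose primary screen, scaled between solvent and toxic-drug controls, exceeds 50; inactive means the rest.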 This is one part of a sample in which actives are shown more often than they occur. Entries with a potency or affinity are not part of this list.
Labels: active, inactive

Compound: O=C(N1CCOCC1)N1CCN(S(=O)(=O)N2CCOCC2)CC1
Class Name: inactive
//
Compound: COc1ccc(C(=O)Nc2nc(-c3cccs3)cs2)cc1
Class Name: inactive
//
Compound: O=C(CC1Nc2ccccc2NC1=O)Nc1ccccc1 (centres undefined)
Class Name: inactive
//
Compound: Nc1c(S(=O)(=O)c2cccs2)c2nc3ccccc3nc2n1Cc1cccs1
Class Name: inactive
//
Compound: Cc1ccc(NC(=O)CC2Nc3ccccc3NC2=O)cc1Cl (centres undefined)
Class Name: active
//
Compound: COc1ccc(-n2nnnc2SCC(=O)Nc2cccc(NC(C)=O)c2)cc1OC
Class Name: inactive
//
Compound: Cc1nc(N2CCN(C(=O)c3ccco3)CC2)c2c3c(sc2n1)CCC3
Class Name: inactive
//
Compound: Cc1ccc(S(=O)(=O)c2c(N)n(/N=C/c3ccco3)c3nc4ccccc4nc23)cc1C
Class Name: inactive
//
Compound: CCSc1nnc(NC(=O)CSc2nnc(Cc3cccn3C)n2-c2ccc(C)cc2)s1
Class Name: active

====

# Assay Name: viability loss of HPDE-C7K cells – cell-based, fluorescence, HTS, primary screen (AID 431);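 also: 0% = DMSO solvent wells and 100% = doxorubicin-treated wells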
# Particulars: HPDE-C7K KRASV12 cells, Alamar Blue viability, 48 h; at 10 µM
Out of some 63,000 compounds screened, about 1,100 (1.7%) were called active.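 How the source made its calls: active means compounds whose percent cytotoxicity in the single-dose primary screen, scaled between solvent and toxic-drug controls, exceeds 50; inactive means the rest.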 Many of the other results were omitted from the sample, so actives are more common in it than they were. Measured potencies and affinities stand elsewhere.
Labels: True (active), False (inactive)

Compound: CCOc1ccccc1Oc1cn[nH]c1-c1ccc(OC)cc1O
Class Name: True

Compound: Cc1ccc(CCN2CC(C(=O)NCCCN3CCOCC3)CC2=O)cc1 (stereo not drawn)
Class Name: False

Compound: Cc1csc(NC(=O)C(Cc2ccccc2)n2cccc2)n1 (stereo not drawn)
Class Name: False

Compound: Cc1cccn2c(=O)c3cc(C(=O)N4CCN(c5ccccc5)CC4)n(C)c3nc12
Class Name: False

Compound: CCOC(=O)C(CCC#N)(CCC#N)C(=O)OCC
Class Name: False

Compound: COc1cc(NC(=O)CCCC(=O)OCC(F)(F)C(F)F)nc(OC)n1
Class Name: False

Compound: CCOc1ccc(-c2[nH]ncc2-c2ccc(OC)c(OC)c2)c(O)c1
Class Name: True

Compound: CCSc1nnc(NC(=O)C(Cc2ccccc2)n2cccc2)s1 (stereo not drawn)
Class Name: False

====

# Assay Name: viability loss of HPDE-C7K cells – cell-based, fluorescence, HTS, primary screen (AID 431);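 also: 0% = DMSO solvent wells and 100% = doxorubicin-treated wells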
# Particulars: HPDE-C7K KRASV12 cells, Alamar Blue viability, 48 h; at 10 µM
Screen size: about 63,000 compounds; about 1,100 (1.7%) were called active.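 Rule for the calls: active = compounds whose percent cytotoxicity in the single-dose primary screen, scaled between solvent and toxic-drug controls, exceeds 50; inactive = the rest.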 What follows is part of a selection rich in actives, with near analogues and random picks from the rest. Entries with a potency or affinity are not part of this list.
Labels: 1 = active, 0 = inactive

Molecule: N#CC1=C(N)NC(SCC(=O)O)=C(C#N)C12CCCC2
Class Name: 0
--
Molecule: COC(=O)c1ccc(OC(=O)c2ccccn2)cc1
Class Name: 0
--
Molecule: COc1ccc(/C(O)=C2/C(=O)C(=O)N(CCCC(=O)O)C2c2ccc(OC)c(OC)c2)cc1 (centres undefined)
Class Name: 0
--
Molecule: Cc1[nH]nc(-c2ccc(O)cc2O)c1Oc1ccccc1
Class Name: 1
--
Molecule: C=C(C)COc1ccc(-c2n[nH]c(C)c2Oc2ccccc2OC)c(O)c1
Class Name: 1
--
Molecule: C=C(C)COc1ccc(-c2nc(N)nc(C)c2Oc2ccccc2OC)c(O)c1
Class Name: 0
--
Molecule: CC1CCCC(C)N1C(=O)Cn1c(=O)sc2ccccc21 (centres undefined)
Class Name: 0
--
Molecule: CCCC(=O)n1nc(-c2ccco2)nc1SCc1ccccc1
Class Name: 0
--
Molecule: CSC1=C(C#N)C2(CCCC2)C(C#N)=C(N)N1
Class Name: 0
--
Molecule: CCCCn1c(SCN2C(=O)c3ccccc3C2=O)nc2cc(S(N)(=O)=O)ccc21
Class Name: 0
--
Molecule: O=C1Nc2ccccc2C12OCC(COc1ccc(Cl)cc1)O2 (centres undefined)
Class Name: 0
--
Molecule: Cc1cccc(OCC(O)Cn2c(NCCCOC(C)C)nc3c2c(=O)[nH]c(=O)n3C)c1 (centres undefined)
Class Name: 0
--
Molecule: CC(NS(=O)(=O)c1ccc(F)cc1)C(c1cccs1)N1CCN(C)CC1 (centres undefined)
Class Name: 0
--
Molecule: CC(C)C(=O)N1CCc2cc(-c3csc(N)n3)ccc21
Class Name: 0
--
Molecule: Cc1ccc(C)c(N2CCN(C(=O)c3ccc(NS(=O)(=O)c4c(C)noc4C)cc3)CC2)c1
Class Name: 0
--
Molecule: CCC(C)n1ncn(-c2ccc(N3CCN(c4ccc(OCC5COC(Cn6cncn6)(c6ccc(Cl)cc6Cl)O5)cc4)CC3)cc2)c1=O (centres undefined)
Class Name: 1
--
Molecule: CC1(C)CC(=O)C2=C(C1)NC(SCC(=O)Nc1ccccc1)=C(C#N)C21CCCCC1
Class Name: 0
--
Molecule: CCOC(=O)c1cnc(SC2CC(=O)N(c3ccc(OC)c(OC)c3)C2=O)nc1N (centres undefined)
Class Name: 0
--
Molecule: COc1cccc(Oc2cncnc2-c2ccc(OC)cc2O)c1
Class Name: 0
--
Molecule: N#CC1=C(N)NC(SCc2ccccc2)=C(C#N)C12CCCCC2
Class Name: 1
--
Molecule: CCSC1=C(C#N)C2(CCCC2)C(C#N)=C(N)N1
Class Name: 0
--
Molecule: Cc1oc2cc(O)ccc2c(=O)c1Oc1ccccc1
Class Name: 0
--
Molecule: CCN(CC)CCCNC(=O)Cn1cc2c(n1)CCC(C)C2 (centres undefined)
Class Name: 0
--
Molecule: COc1cc(Cl)c(C)cc1NC(=O)CSc1nnc(-c2ccccn2)n1Cc1ccco1
Class Name: 0
--
Molecule: Cc1ccccc1CS(=O)(=O)CCC(=O)N1CCN(c2ccc(N3CCOCC3)nn2)CC1
Class Name: 0
--
Molecule: CC1Oc2ccccc2N(Cc2ccccc2F)C1=O (centres undefined)
Class Name: 0
--
Molecule: CCOC(=O)C1CCCN(Cc2ccccc2F)C1 (centres undefined)
Class Name: 0
--
Molecule: O=C(CCCn1c(=S)[nH]c2cc3c(cc2c1=O)OCO3)N1CCN(c2ncccn2)CC1
Class Name: 0
--
Molecule: O=S(=O)(c1ccc(C2CCCCC2)cc1)N1CCN(c2ncccn2)CC1
Class Name: 0
--
Molecule: COc1ccc(Oc2c(-c3ccc(O)cc3O)n[nH]c2C)cc1
Class Name: 0
--
Molecule: COc1ccc(CNC(=O)Cc2ccc(OC)c(S(=O)(=O)N3CCOCC3)c2)cc1
Class Name: 0
--
Molecule: C=CCOC(=O)CC(NC(=O)c1ccccc1)c1ccccc1 (centres undefined)
Class Name: 0
--
Molecule: C=C(C)COc1ccc(-c2ncncc2Oc2ccc(OC)cc2)c(O)c1
Class Name: 0
--
Molecule: CCOC(=O)N1CCN(C(=O)C2COc3ccccc3O2)CC1 (centres undefined)
Class Name: 0
--
Molecule: CCOc1ccc(-c2n[nH]c(C)c2Oc2ccccc2OC)c(O)c1
Class Name: 0
--
Molecule: COc1ccccc1N1CCN(C(=O)CCCCn2c(=O)[nH]c3ccsc3c2=O)CC1
Class Name: 0
--
Molecule: COc1ccc(C(C(=O)OC(C)CN(C)C)c2ccccc2)cc1 (centres undefined)
Class Name: 0
--
Molecule: O=C1N=c2ccccc2=C1c1sc(=S)n(CC2CCCO2)c1O (centres undefined)
Class Name: 0
--
Molecule: Cc1nc(NS(=O)(=O)c2cccs2)c2c3c(sc2n1)CCC3
Class Name: 0
